- Tested on: HOP-62 NSCLC
- ASSAY SUMMARY: NCI-60 one-dose screen, 48 h (100 = growth as untreated, 0 = no growth, -100 = all killed)
- TEST SETTINGS: 10 µM unless noted
This is part of a sample that, as a whole, favours compounds with a hit. Of some 83,000 tested, about 20% had one in any assay.
MEASUREMENT NAME: growth (%)

> print(dat)
                            compound.smiles  measurement.name  test.result
1  N=C1CC(=O)NN1C(=O)CSc1nc2sc3c(c2c(=O)n1-c1ccc(Cl)cc1)CCCC3            growth         90.3
2  COc1cc(/C=C/C(=O)c2ccccc2)ccc1Oc1nc(NCCO)nc(N2CCOCC2)n1            growth         90.1
3  COc1ccc(-n2c(SCC(=O)Nc3ccc(-c4nc5ccccc5[nH]4)cc3)nc3ccccc3c2=O)cc1            growth         89.4

====

Here, each record is paired with measured growth data.
- System: NCI-H226 lung
- ASSAY SUMMARY: NCI-60 one-dose screen, 48 h (100 = growth as untreated, 0 = no growth, -100 = all killed)
- TEST SETTINGS: 10 µM unless noted
Compounds without any hit were thinned out: in the full panel of roughly 83,000, 20% have a hit.
MEASUREMENT NAME: growth (%)

> print(dat)
                                   compound  test.result
1  CCN1C(=S)N(CC)C2C1N=C(SC)N2/N=C/C=C/c1ccccc1[N+](=O)[O-] (stereo not given)         92.9
2  COC(=O)C(C)NS(=O)(=O)/N=C1\NC(=O)NC1=C(Cl)Cl (stereo not given)          106
3  COc1ccc(/C=N/NC(=O)c2[nH]c3ccc(Br)cc3c2-c2ccccc2)s1         47.8
4  OC1CCN(CCCOc2c3ccccc3nc3c2oc2ccccc23)CC1        -31.2
5  COc1cccc(N2CCN(c3ncnc4c3[nH]c3ccc(F)cc34)C[C@@H]2C)c1        -60.5

====

Here, each record is paired with measured growth data.
- Tested on: 786-0 renal
- ASSAY SUMMARY: NCI-60 one-dose screen, 48 h (100 = growth as untreated, 0 = no growth, -100 = all killed)
- TEST SETTINGS: 10 µM unless noted
- Protocol: Cells are grown in 96 well plates and exposed to the test compound for 48 hours. Compounds are tested at a single concentration, which is 10^-5 M for most compounds. The reported endpoint is percent growth (GI% or GIPRCNT), where numbers from 0 - 100% represent growth inhibition, and numbers from -100% - 0 represent cell death. For example, a value of 40 represents 60% growth inhibition. A value of 0 means no net growth occurred over the course of the experiment. […]
The panel holds about 83,000 compounds, 20% with a hit somewhere; the sample as a whole holds those more often.
MEASUREMENT NAME: growth (%)

> print(dat)
                                   molecule  measurement.name  quantity.unit  test.result
1  CC(C)(O)c1cncc(-c2ccc3ncnc(N4CCc5cc(F)c(Cl)cc54)c3c2)c1            growth              %         11.7
2  COc1ccc(Cc2nn(CC(=O)N/N=C/c3ccc(Cl)cc3)c(=O)c3c(C)noc23)cc1            growth              %         52.6
3  O=C1C2=C(C(=O)c3c(O)cccc31)C(c1ccco1)c1sc(=O)[nH]c1S2 (stereo not drawn)            growth              %         62.3
